Assay: Liver Microsome stability (In Vitro Metabolism)
Assay type: in vitro ADME
Conditions: Mouse liver microsomes
Experimental: Working Compound solution: 10 uM in 50 mM potassium phosphate buffer with 9% MeOH and 1% DMSO Microsome solution: working concentration 0.625 mg/ml Stopping solution: Cold ACN with 200 ng/ml Tolbutamide and 200 ng/ml Labetalol (4° C.) Procedure: In the well plates (T5, T10, T20, T30, T60, NCF60 (no cofactor 60)) 10 uL of the compound/control working solution was added (except T0 and matric blank) followed by microsome solution (80 uL) and the mixture was incubated at 37 C for about 10 mins. […]
endpoint name: half-life at 1 µM

Look up half-life at 1 µM of C[C@@H]1[C@H](O)[C@@H](C)/C=C/C=C/C=C/C=C/C=C/C=C/C=C/[C@H](OC2O[C@H](C)[C@@H](O)[C@H](N)[C@@H]2O)C[C@@H]2O[C@](O)(C[C@@H](O)C[C@@H](O)[C@H](O)CC[C@@H](O)C[C@@H](O)CC(=O)O[C@H]1C)C[C@H](O)[C@H]2C(=O)O (stereo partly shown) and report it.
> 2.42 h

---

Experiment: Liver microsome stability, summary for all species
Assay type: in vitro ADME
Conditions: liver microsomes; Mouse, rat, dog, monkey, human: All species; read-out: Liver microsome T1/2
Description: Working Compound solution: 10 uM in 50 mM potassium phosphate buffer with 9% MeOH and 1% DMSO Microsome solution: working concentration 0.625 mg/ml Stopping solution: Cold ACN with 200 ng/ml Tolbutamide and 200 ng/ml Labetalol (4° C.) Procedure: In the well plates (T5, T10, T20, T30, T60, NCF60 (no cofactor 60)) 10 uL of the compound/control working solution was added (except T0 and matric blank) followed by microsome solution (80 uL) and the mixture was incubated at 37 C for about 10 mins. […]
endpoint name: half-life at 1 µM

Look up half-life at 1 µM of C[C@@H]1[C@H](O)[C@@H](C)/C=C/C=C/C=C/C=C/C=C/C=C/C=C/[C@H](OC2O[C@H](C)[C@@H](O)[C@H](N)[C@@H]2O)C[C@@H]2O[C@](O)(C[C@@H](O)C[C@@H](O)[C@H](O)CC[C@@H](O)C[C@@H](O)CC(=O)O[C@H]1C)C[C@H](O)[C@H]2C(=O)O (stereo partly shown) and report it.
> 2.42 h

---

Experiment: Liver Microsome stability (In Vitro Metabolism)
Type: in vitro ADME
Conditions: Rat liver microsomes
endpoint name: CLint scaled at 1 µM

Look up CLint scaled at 1 µM of C[C@@H]1[C@H](O)[C@@H](C)/C=C/C=C/C=C/C=C/C=C/C=C/C=C/[C@H](OC2O[C@H](C)[C@@H](O)[C@H](N)[C@@H]2O)C[C@@H]2O[C@](O)(C[C@@H](O)C[C@@H](O)[C@H](O)CC[C@@H](O)C[C@@H](O)CC(=O)O[C@H]1C)C[C@H](O)[C@H]2C(=O)O (stereo partly shown) and report it.
< 17 mL/min/kg

---

Assay: Plasma Stability
Assay type: in vitro ADME
Settings: Rat Plasma
endpoint name: % Remaining at 120 min (%)
The reply should be a number in %, with the unit left off.

Look up % Remaining at 120 min of CC1C=CC=CC=CC=CC=CC=CC=CC(OC2OC(C)C(O)C(N)C2O)CC2OC(O)(CC(O)CC(O)C(O)CCC(O)CC(O)CC(=O)OC(C)C(C)C1O)CC(O)C2C(=O)NCCO (centres unmarked) [Compound AA] and report it.
108

Look up % Remaining at 120 min of CC1C=CC=CC=CC=CC=CC=CC=CC(OC2OC(C)C(O)C(N)C2O)CC2OC(O)(CC(O)CC(O)C(O)CCC(O)CC(O)CC(=O)OC(C)C(C)C1O)CC(O)C2C(=O)NCCN (centres unmarked) [AM] and report it.
118

Look up % Remaining at 120 min of C[C@@H]1[C@H](O)[C@@H](C)/C=C/C=C/C=C/C=C/C=C/C=C/C=C/[C@H](OC2O[C@H](C)[C@@H](O)[C@H](N)[C@@H]2O)C[C@@H]2O[C@](O)(C[C@@H](O)C[C@@H](O)[C@H](O)CC[C@@H](O)C[C@@H](O)CC(=O)O[C@H]1C)C[C@H](O)[C@H]2C(=O)O (some centres unmarked) [AmB, Amphotericin B] and report it.
88.3

Look up % Remaining at 120 min of CNC(=O)C1C(O)CC2(O)CC(O)CC(O)C(O)CCC(O)CC(O)CC(=O)OC(C)C(C)C(O)C(C)C=CC=CC=CC=CC=CC=CC=CC(OC3OC(C)C(O)C(N)C3O)CC1O2 (centres unmarked) [AN] and report it.
118

Look up % Remaining at 120 min of COC(=O)C(Cc1c[nH]cn1)NC(=O)C1C(O)CC2(O)CC(O)CC(O)C(O)CCC(O)CC(O)CC(=O)OC(C)C(C)C(O)C(C)C=CC=CC=CC=CC=CC=CC=CC(OC3OC(C)C(O)C(N)C3O)CC1O2 (centres unmarked) [AL] and report it.
111

Cited source for all entries: patent US20230016424A1
